# System: c-Abl (mouse);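 also: 11-residue human phosphosite peptides and single-mutation variants displayed on the E. coli surface, counted by deep sequencing, each peptide's frequency after selection divided by its frequency in the unselected input library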;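 also: frequency after pTyr selection over input frequency; kinase dosed for 20-30% of maximal phosphorylation in three min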
# method.notes: phosphorylation enrichment, bacterial display (enrichment ratio); higher = better substrate or ligand; peptides without Tyr show the background
Param threshold (0.7) applies to phosphorylation enrichment; output Yes when value >= threshold, No when value < threshold.

Q) Evaluate LEFGDYHPLKP [VPS35L_Y32] : phosphorylation enrichment at minimum 0.7?
A) Yes

Q) Evaluate RQGKDYIGAIP [KDR_Y951_V952I] : phosphorylation enrichment at minimum 0.7?
A) Yes

Q) Evaluate HVSISYDIPLT [GAB1_Y307_P311L] : phosphorylation enrichment at minimum 0.7?
A) Yes

Q) Evaluate VQVAYYTVMMN [SPATA17_Y84_M86V] : phosphorylation enrichment at minimum 0.7?
A) Yes

Q) Evaluate RHTRSYDYTEG [FGF7_Y56_M59T] : phosphorylation enrichment at minimum 0.7?
A) No

Q) Evaluate AKKVFYVNETR [SHH_Y253_I255N] : phosphorylation enrichment at minimum 0.7?
A) No

Q) Evaluate RVSSVYTRSTG [CCR5_Y339_A335V] : phosphorylation enrichment at minimum 0.7?
A) Yes

Q) Evaluate DLSEVYKPCRK [CCDC93_Y176_R179C] : phosphorylation enrichment at minimum 0.7?
A) Yes

Values were extracted from the supplement of paper PMC10065799.
